// data source = patent US20240084017A1

ASSAYED_SYSTEM: human Mac-1 (integrin αMβ2, CD11b/CD18) (human, UniProt P11215 17-1152; P05107 23-769)
TEST_NAME: flow cytometry, HEK293/Mac-1 cells; MFI in PBS over MFI in PBS/MnCl2
Recorded Mock/Mn^2+ Ratio values for a group of binders are listed next.

>  <BINDER>
anti-Mac-1 antibody clone 27A04 (antibody, human IgG4, V domains shown) VH: QVKLQQSGPELVKPGASVKISCKASGYSFTDYNMNWVKQSNGKSLEWIGVINPNYGTTSYNQKFKGKATLTVDQSSSTAYMQLNSLTSEDSAVYYCARTYDYDGDAFAYWGQGTTVTVSS VL: DIELTQSPAIMSASPGEKVTMTCSASSSVSYMHWYQQKSGTSPKRWIYDTSKLASGVPARFSGSGSGTSYSLTISSMEAEDAATYYCQQWSSNPPTFGAGTKLELK

>  <Mock/Mn^2+ Ratio>
0.91

$$$$
>  <BINDER>
anti-Mac-1 antibody clone 27E12 (antibody, human IgG4, V domains shown) VH: QVQLQQSGTVLARPGASVKMSCKASGYTFTSYWMHWVKQRPGQGLEWIGAIYPGNSDTSYNQKFKGKAKLTAVTSASTAYMELSSLTNEDSAVYYCTRGGGSYEFAYWGQGTTVTVSS VL: DIELTQSPAIMSASPGEKVTMTCSVSSSVSYMYWYQQKPGSSPRLLIYDTSNLASGVPARFSGSGSGTSYSLTISSMEAEDAATYYCQQWSSNPFTFGSGTKLEIK

>  <Mock/Mn^2+ Ratio>
1.12

$$$$
>  <BINDER>
anti-Mac-1 antibody clone DF4M-31 (antibody, human IgG4, V domains shown) VH: EVQLVESGGGLVQPGGSLRLSCAASGFTFTSATMSWVRQAPGKGLEWVSIISPGGSETYYADSVKGRFTISRDNSKNTLYLQMNSLRAEDTAVYYCARGGDYPSYYMDPWGQGTLVTVSS VL: DIQMTQSPSSLSASVGDRVTITCRASQSISNYLAWYQQKPGKAPKLLIYGTSSLQSGVPSRFSGSGSGTDFTLTISSLQPEDFATYYCQQGHQWPWTFGQGTKVEIK

>  <Mock/Mn^2+ Ratio>
0.36

$$$$
>  <BINDER>
anti-Mac-1 antibody clone 24H01 (antibody, human IgG4, V domains shown) VH: EVQLVESGGGLVQPGGSLRLSCAASGFTFNNYYMSWVRQAPGKGLEWVSIIYYDGSEADYADSVKGRFTISRDNSKNTLYLQMNSLRAEDTAVYYCARNKDIYSVYGMDYWGQGTLVTVSS VL: DIQMTQSPSSLSASVGDRVTITCRASQSISNYLAWYQQKPGKAPKLLIYATSNLQSGVPSRFSGSGSGTDFTLTISSLQPEDFATYYCQQANNTPPTFGQGTKVEIK

>  <Mock/Mn^2+ Ratio>
0.42

$$$$
>  <BINDER>
anti-Mac-1 antibody clone 28E07 (antibody, human IgG4, V domains shown) VH: QVQLQQSGPELVKPGASVKISCKASGYSFTDYNMNWVKQSNGKSLEWIGEINPGYGTSRYNQKFKDKATLTVDQSSTTAYMQLNSLTSEDSAVYYCARADVDYGDVMDYWGQGTTVTVSS VL: DIELTQSPAIMSASPGEKVTMTCSASSSVSYMHWYQQKSGTSPKRWIYDTSKLASGVPTRFSGSGSGTSYSLTISSMEAEDAATYYCQQWSSNPPTFGAGTKLELK

>  <Mock/Mn^2+ Ratio>
0.95

$$$$
>  <BINDER>
anti-Mac-1 antibody clone 25A06 (antibody, human IgG4, V domains shown) VH: EVQLVESGGGLVQPGGSLRLSCAASGFTFSSYYMSWVRQAPGKGLEWVSTINYDGSEKDYADSVKGRFTISRDNSKNTLYLQMNSLRAEDTAVYYCARDRLGNYPWFDVWGQGTLVTVSS VL: DIQMTQSPSSLSASVGDRVTITCRASQSISNYLAWYQQKPGKAPKLLIYDANNLQSGVPSRFSGSGSGTDFTLTISSLQPEDFATYYCQQSYSWPLTFGQGTKVEIK

>  <Mock/Mn^2+ Ratio>
0.72

$$$$
>  <BINDER>
anti-Mac-1 antibody clone 24F09 (antibody, human IgG4, V domains shown, also called 24F9) VH: EVQLVESGGGLVQPGGSLRLSCAASGFTFSSAWMSWVRQAPGKGLEWVSTIYWSGSEINYADSVKGRFTISRDNSKNTLYLQMNSLRAEDTAVYYCARSFASGESAMDVWGQGTLVTVSS VL: DIQMTQSPSSLSASVGDRVTITCRASQSISNYLAWYQQKPGKAPKLLIYDASNLQSGVPSRFSGSGSGTDFTLTISSLQPEDFATYYCQQYYSSPPTFGQGTKVEIK

>  <Mock/Mn^2+ Ratio>
1.17

$$$$
>  <BINDER>
anti-Mac-1 antibody clone 27A06 (antibody, human IgG4, V domains shown) VH: QVKLQQSGPELVTPGASVKISCKPSGYSFTDYNMNWVKQSNGKSLEWIGEINPNYGTTRHNQKFKGKASLTVDQSSSTAYMQLISLTSEDSAVYYCARTYDYDEDAFAYWGQGTTVTVSS VL: DIELTQSPAIMSASPGEKVTMTCSASSSVSYMHWYQQKSDTSPKRWIYDTSKLASGVPARFSGSGSGTSYSLTISSMEAEDAATYYCQQWSSNPPTFGAGTKLELK

>  <Mock/Mn^2+ Ratio>
1.35

$$$$
>  <BINDER>
anti-Mac-1 antibody clone m2396 (antibody, human IgG4, V domains shown) VH: QVQLQESGPGLVKPSETLSLTCTVSGFSLTSNSISWVRQPPGKGLEWMGAIWSGGGTDYNPSLKSRLTISRDTSKSQVFLKMSSLTAADTAIYFCTRGGYPYYFDYWGQGVLVTVSS VL: DIVMTQSPDSLAVSLGERVTINCKSSQSLLYSENQENYLAWYQQKPGQSPKLLIYWASTRQSGVPDRFSGSGSGTDFTLTISSVQAEDLAIYYCQQYYDTPLTFGGGTKLEIK

>  <Mock/Mn^2+ Ratio>
1.01

$$$$
>  <BINDER>
anti-Mac-1 antibody clone 25A04 (antibody, human IgG4, V domains shown) VH: EVQLVESGGGLVQPGGSLRLSCAASGFTFSFTAMHWVRQAPGKGLEWVSAIIYNGSEADYADSVKGRFTISRDNSKNTLYLQMNSLRAEDTAVYYCARANDYDHGCCDNYAMDYWGQGTLVTVSS VL: DIQMTQSPSSLSASVGDRVTITCRASQGIGSYLYWYQQKPGKAPKLLIYDASNLQSGVPSRFSGSGSGTDFTLTISSLQPEDFATYYCMQHGGWPLTFGQGTKVEIK

>  <Mock/Mn^2+ Ratio>
0.6

$$$$
